Target Or Test System: dTas2r10 (Canis lupus, UniProt Q2ABD4)
Construct: HEK293T-PEAKrapid cells with Galpha16i/o44
Sequence (Q2ABD4 1-322): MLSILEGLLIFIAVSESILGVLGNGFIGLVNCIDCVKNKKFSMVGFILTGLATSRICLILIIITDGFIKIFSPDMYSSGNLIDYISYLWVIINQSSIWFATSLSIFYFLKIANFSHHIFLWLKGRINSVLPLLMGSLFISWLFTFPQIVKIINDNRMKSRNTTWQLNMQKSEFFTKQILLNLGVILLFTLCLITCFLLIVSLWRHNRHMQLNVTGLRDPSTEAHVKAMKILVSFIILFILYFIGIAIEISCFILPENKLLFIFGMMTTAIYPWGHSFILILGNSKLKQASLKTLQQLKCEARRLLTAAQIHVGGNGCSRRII
Method Summary: calcium imaging (Cal520-AM), HEK293T cells
Endpoint: EC50 (nM)
Give bare numbers, in nM.

Short answer for CC(=O)OC(C)(C)/C=C/C(=O)[C@](C)(O)[C@H]1[C@H](O)C[C@@]2(C)[C@@H]3CC=C4[C@@H](C[C@H](O)C(=O)C4(C)C)[C@]3(C)C(=O)C[C@]12C : EC50 was 2400

This collection of values is drawn from paper PMC9710775.
